condition.details: [M+Na]+; instrument: DT; stepped-field
Entries annotated with measured collision cross section (N2)
readout.kind: collision cross section (N2) (Å²)

1. CCCCCCCCCC/C=C\CCCCCCCCCC(=O)O[C@H](COC(=O)CCCCCCCCCCCC)COP(=O)(O)OCCN    282.9
2. CC=CCC=CCC=CCC=CCC=CCC=CCC(=O)OC[C@H](COP(=O)(O)OCC[N+](C)(C)C)OC(=O)CC=CCC=CCC=CCC=CCC=CCC=CC    300.6
3. CCCCC/C=C\C/C=C\CCCCCCCCCCCC(=O)O[C@H](COC(=O)CCCCCCC/C=C\CCCCCC)COP(=O)(O)OCCN    289.3
4. CC/C=C\C/C=C\C/C=C\C/C=C\C/C=C\C/C=C\CCC(=O)O[C@H](COC(=O)CCCCCCC/C=C\CCCC)COP(=O)([O-])OCC[N+](C)(C)C    292.5

* * *

condition.details: [M+Na]+; instrument: TW; calibrated with phosphatidylcholines (ESI+) and phosphatidylethanolamines (ESI-), doubly charged cardiolipins calibrated with poly-DL-…
readout.kind: collision cross section (N2) (Å²)

1. CCCCCCC1CC1CCCCCCCC(=O)OC[C@@H](O)COP(=O)([O-])OCC[NH3+] (stereo not given in full)    219.72
2. CCCCCC/C=C\CCCCCCCC(=O)OC[C@H](COP(=O)(O)OC[C@@H](O)COC(=O)CCCCCCCCCCCCCCC)OC(=O)CCCCCCCCCCCCCC    326
3. CCCCCCCCCCCCCCC(=O)OC[C@@H](O)COP(=O)([O-])OCC[NH3+]    216.13
4. CCCCCCCCCCCCCC(=O)O[C@H](CO)COP(=O)([O-])OCC[NH3+]    213.66
5. CCCCCCCCCCCCCCCC(=O)OC[C@@H](O)COP(=O)([O-])OCC[NH3+]    220.01
6. CCCCCC/C=C\CCCCCCCC(=O)OCC(COP(=O)(O)OCC(O)CO)OC(=O)CCCCCCCCCCCCC (stereo not given)    268.07
7. CCCCCCCCCCCCCCCC(=O)O[C@H](CO)COP(=O)([O-])OCC[NH3+]    220.61
8. CCCCCC/C=C\CCCCCCCC(=O)OC[C@H](COP(=O)(O)OCCNC(=O)CCCCCCCCCCCCCCC)OC(=O)CCCCCCCCCCCCCCCCC    330.1
9. CCCCCCCCCCCCCCCC(=O)OCC(COP(=O)(O)OCC(O)CO)OC(=O)CCCCCCCC1CC1CCCCCC (stereo not given)    280.56
10. CCCCCC/C=C/CCCCCCCC(=O)O[C@H](CO)COP(=O)([O-])OCC[NH3+]    212.72

* * *

Entries annotated with measured collision cross section (N2)
condition.details: [M+K]+; instrument: DT; stepped-field
readout.kind: collision cross section (N2) (Å²)

1) CCC=CCC=CCC=CCC=CCC=CCC=CCC=CCC(=O)OC[C@H](COP(=O)(O)OC[C@H](N)C(=O)O)OC(=O)CC=CCC=CCC=CCC=CCC=CCC=CCC=CCC    311
2) CCCCC/C=C\C/C=C\CCCCCCCCCC(=O)O[C@H](COC(=O)CCCCCCC/C=C\CCCCCCC)COP(=O)(O)OCCN    286.5
3) CC/C=C\C/C=C\C/C=C\C/C=C\C/C=C\C/C=C\CCC(=O)OC[C@H](COP(=O)([O-])OCC[N+](C)(C)C)OC(=O)CCCCCCC/C=C\CCCCCCC    303.8
4) OC[C@H]1O[C@@H]2O[C@H]3[C@H](O)[C@@H](O)[C@@H](O[C@H]4[C@H](O)[C@@H](O)[C@@H](O[C@H]5[C@H](O)[C@@H](O)[C@@H](O[C@H]6[C@H](O)[C@@H](O)[C@@H](O[C@H]7[C@H](O)[C@@H](O)[C@@H](O[C@H]1[C@H](O)[C@H]2O)O[C@@H]7CO)O[C@@H]6CO)O[C@@H]5CO)O[C@@H]4CO)O[C@@H]3CO    287.7

* * *

Entries annotated with measured collision cross section (N2)
condition.details: [M+H]+; instrument: TW; calibrated with polyalanine and drug standards
readout.kind: collision cross section (N2) (Å²)

1) CC(=O)O[C@H]1CC[C@@]2(C)[C@H](CC[C@@H]3[C@@H]2CC[C@]2(C)[C@@H]4[C@H](C[C@@H]32)O[C@]2(CC[C@@H](C)CO2)[C@H]4C)C1 [SMILAGENIN ACETATE]    222.1
2) COc1cc2c(cc1OC)-c1c(oc3cc(O)cc(O)c3c1=O)CO2    173.8
3) COc1ccc2cc([C@H](C)CO)ccc2c1    140
4) COC1=C(OC)C(=O)C(CCCCCCCCCCO)=C(C)C1=O    178.6
5) C[C@]12CCC(=O)C=C1C=C[C@@H]1[C@@H]2CC[C@@]2(C)[C@H]1CC[C@@]21CCC(=O)O1    183
6) CC(C)(C)c1ccc(C(O)CCCN2CCC(C(O)(c3ccccc3)c3ccccc3)CC2)cc1 (stereo not given)    226.8
7) CCC(=O)O[C@H]1CC[C@H]2[C@@H]3CCC4=CC(=O)CC[C@]4(C)[C@H]3CC[C@]12C [TESTOSTERONE PROPIONATE]    188.2
8) CO[C@H]1/C=C/O[C@@]2(C)Oc3c(C)c(O)c4c(c3C2=O)C(=O)/C(=C/NN2CCN(C)CC2)C(=C4O)NC(=O)/C(C)=C\C=C\[C@H](C)[C@H](O)[C@@H](C)[C@@H](O)[C@@H](C)[C@H](OC(C)=O)[C@@H]1C    280.3
9) Cc1nccc2c1[nH]c1ccccc12    136.6
10) COc1cc2c3cc1Oc1cc(ccc1O)C[C@@H]1c4c(cc(OC)c(O)c4Oc4ccc(cc4)C[C@@H]3N(C)CC2)CC[N+]1(C)C [TUBOCURARINE CHLORIDE]    236
11) COc1ccc2cc(CCC(C)=O)ccc2c1    148
12) C/C(=C(\CCOP(=O)(O)O)SC(=O)c1ccccc1)N(C=O)Cc1cnc(C)nc1N    192.7
13) COc1cc(/C=C/C(=O)O)ccc1O    128.8
14) c1ccc2c(c1)[nH]c1cnccc12    132.2
15) N[C@@H](Cc1ccc(N(CCCl)CCCl)cc1)C(=O)O    168.7

* * *

condition.details: [M+Cl]-; instrument: TW; calibrated with phosphatidylcholines (ESI+) and phosphatidylethanolamines (ESI-)
Entries annotated with measured collision cross section (N2)
readout.kind: collision cross section (N2) (Å²)

1) CCCCCCCCCCCCCC=CCC(=O)OC[C@H](CO[C@@H]1O[C@H](CO[C@H]2O[C@H](CO)[C@H](O)C(O)C2O)[C@H](O)C(O)C1O)OC(=O)CC=CCCCCCCCCCCCCC (some centres undefined) [DGDG(16:0/18:2)]    304.9
2) CCCCCCCCCCC=CCC=CCC(=O)OC[C@H](CO[C@@H]1O[C@H](CO[C@H]2O[C@H](CO)[C@H](O)C(O)C2O)[C@H](O)C(O)C1O)OC(=O)CC=CCC=CCCCCCCCCCC (some centres undefined) [DGDG(16:1/18:3)]    303.2
3) CCCCCCCC=CCC=CCC=CCC(=O)OC[C@H](CO[C@@H]1O[C@H](CO[C@H]2O[C@H](CO)[C@H](O)C(O)C2O)[C@H](O)C(O)C1O)OC(=O)CC=CCC=CCC=CCCCCCCC (some centres undefined) [DGDG(16:3/18:3)]    299.9
4) CCCCCCCCC=CCC=CCC=CCC(=O)OC[C@H](CO[C@@H]1O[C@H](CO[C@H]2O[C@H](CO)[C@H](O)C(O)C2O)[C@H](O)C(O)C1O)OC(=O)CC=CCC=CCC=CCCCCCCCC (some centres undefined) [DGDG(18:3/18:3)]    305.9

* * *

condition.details: [M+Na]+; instrument: DT; stepped-field
Criterion: collision cross section (N2) strictly under 300 Å². Met: 1 (yes). Not met: 0 (no).

1) CCCCC/C=C\C/C=C\CCCCCCCC(=O)O[C@H](COC(=O)CCCCCCCCCCCCCCCCCC)COP(=O)(O)OCCN [PE(37:2)]    1 (yes)
2) CCCCCCCC=CCC=CCC=CCC=CCC=CCC(=O)OC[C@H](COP(=O)(O)OC[C@H](N)C(=O)O)OC(=O)CC=CCC=CCC=CCC=CCC=CCCCCCCC [PS(46:10)]    0 (no)
3) OCC1OC(OC2C(CO)OC(OC3C(CO)OC(OC4C(CO)OC(OC5C(CO)OC(O)C(O)C5O)C(O)C4O)C(O)C3O)C(O)C2O)C(O)C(O)C1O (stereo unspecified) [(Hex)5]    1 (yes)
4) CCCCC=CCC=CCC=CCC=CCC=CCC=CCC(=O)OC[C@H](COP(=O)(O)OC[C@H](N)C(=O)O)OC(=O)CC=CCC=CCC=CCC=CCC=CCC=CCCCC [PS(46:12)]    0 (no)
5) CCCCCCCCCCCCC=CC[C@@H](O)[C@H](COP(=O)([O-])OCC[N+](C)(C)C)NC(=O)CC=CCCCCCCCCCCCCCCCCCCCCCC [SM(44:2)]    0 (no)
6) CCCCC/C=C\C/C=C\C/C=C\C/C=C\C/C=C\CCC(=O)O[C@H](COCCCCCCCCCCCCCCCC)COP(=O)(O)OCCN [PE(o38:5)]    1 (yes)
7) NCCCC[C@H](NC(=O)[C@H](CC(N)=O)NC(=O)[C@H](CCC(N)=O)NC(=O)[C@@H](N)Cc1ccccc1)C(=O)O [FQNK]    1 (yes)
